Hello, the source for this data is ChEMBL document CHEMBL4330185, in case you need it.

Assay: Aqueous solubility of the compound after 24 hrs by HPLC analysis
Assay type: physicochemical
Conditions: water
RECORDED ENDPOINT: solubility at 24 h (µg/mL)

1 = C=C(c1ccc(C(=O)O)cc1)c1cc2c(cc1C)C(C)(C)CCC2(C)C [BEXAROTENE]
2 = O=C(O)c1ccc(COc2ccccc2-c2ccccc2)cc1
# input Please let me know which one, 1 or 2 , has a lower measured solubility at 24 h value. Lab note: record the label of whichever item you select.
# output 1
(1: 0.31 µg/mL, 2: 1.31 µg/mL)

* * *

Molecular target: Retinoic acid receptor RXR-beta (Homo sapiens)
Sequence (P28702 whole entry, the tested form may be a part): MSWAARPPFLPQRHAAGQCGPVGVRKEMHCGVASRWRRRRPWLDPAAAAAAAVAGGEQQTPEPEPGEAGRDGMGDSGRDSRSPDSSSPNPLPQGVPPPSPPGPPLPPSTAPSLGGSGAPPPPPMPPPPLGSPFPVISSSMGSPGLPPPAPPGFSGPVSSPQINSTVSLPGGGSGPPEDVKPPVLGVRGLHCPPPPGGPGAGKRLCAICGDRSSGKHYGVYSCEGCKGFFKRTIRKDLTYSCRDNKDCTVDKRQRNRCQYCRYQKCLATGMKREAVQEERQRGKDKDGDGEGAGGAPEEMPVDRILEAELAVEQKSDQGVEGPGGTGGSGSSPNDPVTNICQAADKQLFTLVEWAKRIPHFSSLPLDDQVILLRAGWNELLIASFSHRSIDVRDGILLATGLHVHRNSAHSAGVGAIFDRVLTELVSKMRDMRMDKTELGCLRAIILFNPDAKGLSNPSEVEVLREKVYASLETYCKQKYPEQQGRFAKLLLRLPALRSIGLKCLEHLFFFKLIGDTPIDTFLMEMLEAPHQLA
Assay: Agonist activity at human Gal4-DBD fused RXRbeta LBD expressed in HEK293T cells after 12 to 14 hrs by luciferase reporter gene assay
Assay type: cell-based
Conditions: read-out: EC50
RECORDED ENDPOINT: EC50 (µM)

Consider the worked cases shown below.
[[record]]
structure_notation = "O=C(O)c1ccc(COc2ccccc2Cl)cc1"
result = 8.3

[[record]]
structure_notation = "CC(C)(C)c1ccc(OCc2ccc(C(=O)O)cc2)c(Cl)c1"
result = 5.3

[[record]]
structure_notation = "O=C(O)c1ccc(COc2ccccc2OC(F)(F)F)cc1"
result = 1.9

[[record]]
structure_notation = "O=C(O)c1ccc(COc2ccccc2-c2ccccc2)cc1"
result = 0.31


a = CC(C)c1ccc(OCc2ccc(C(=O)O)cc2)cc1
b = CN(Cc1ccc(C(=O)O)cc1)c1ccc2c(c1)CCC2
# input Of the two listed items, a and b , which carries the larger EC50 figure? API: response body contains the label of the selected item.
# output a

I = O=C(O)c1ccc(COc2ccc(Br)cc2)cc1
II = O=C(O)Cc1ccc(COc2ccc3c(c2)CCC3)cc1
# input Please indicate which entry, I or II , has the lower recorded EC50 value. Pick one and reply with its label.
# output II

P = O=C(O)c1ccc(COc2ccccc2C(F)(F)F)cc1
Q = CC(C)(C)c1ccccc1OCc1ccc(C(=O)O)cc1
R = O=C(O)c1ccc(COc2ccc(C(F)(F)F)cc2C(F)(F)F)cc1
# input Please list the entries, largest EC50 first. List the labels, following the order given in the request.
# output R, P, Q

a = O=C(O)c1ccc(OCc2cccc(Cl)c2)cc1
b = O=C(O)CCc1ccc(COc2ccc3c(c2)CCC3)cc1
# input Returns: the label, a or b , whose recorded EC50 is the lower number. Your answer should be the label attached to the chosen record.
# output b
